system: HIV-1 (IIIB); assay: Inhibition of HIV-1 (IIIB)-induced cytopathicity (giant cell formation) in CEM cells; format: cell-based; details: CEM cultures; wild type in mutant panel; read-out: EC50 HIV-1 IIIB
pEC50: −log10 of the molar value.
Quick reference: pEC50 of the listed items.
test readout: pEC50

[[record]]
compound = "CCCCc1ccc(CN2CCN(Cc3c(O)cc4c(c3O)-c3cc(ccc3O)C3NC(=O)C5NC(=O)C6NC(=O)C(Cc7ccc(c(Cl)c7)Oc7cc5cc(c7O)Oc5ccc(cc5Cl)C(O)C(NC3=O)C(=O)NC4C(=O)NCCCN(C)C)NC(=O)C(N)c3ccc(O)c(c3)Oc3cc(O)cc6c3)CC2)cc1 (stereo not drawn)"
reported_result = 5.55

[[record]]
compound = "CNC(CC(C)C)C(=O)NC1C(=O)NC(CC(N)=O)C(=O)NC2C(=O)NC3C(=O)NC(C(=O)NC(C(=O)O)c4cc(O)c(CN5CCN(Cc6ccc(-c7ccccc7)cc6)CC5)c(O)c4-c4cc3ccc4O)C(O)c3ccc(cc3)Oc3cc2cc(c3O)Oc2ccc(cc2Cl)C1O (stereo not drawn)"
reported_result = 5.26

[[record]]
compound = "CNC(=O)C1NC(=O)C2NC(=O)C(NC(=O)C3NC(=O)C4NC(=O)C(Cc5ccc(c(Cl)c5)Oc5cc3cc(c5O)Oc3ccc(cc3Cl)C2O)NC(=O)C(N)c2ccc(O)c(c2)Oc2cc(O)cc4c2)c2ccc(O)c(c2)-c2c1cc(O)c(CNC1C3CC4CC(C3)CC1C4)c2O (stereo not drawn)"
reported_result = 5.30

[[record]]
compound = "CN(C)CCCNC(=O)C1NC(=O)C2NC(=O)C(NC(=O)C3NC(=O)C4NC(=O)C(Cc5ccc(c(Cl)c5)Oc5cc3cc(c5O)Oc3ccc(cc3Cl)C2O)NC(=O)C(N)c2ccc(O)c(c2)Oc2cc(O)cc4c2)c2ccc(O)c(c2)-c2c1cc(O)c(CNC1C3CC4CC(C3)CC1C4)c2O (stereo not drawn)"
reported_result = 5.22

[[record]]
compound = "CCCCc1ccc(CN2CCN(Cc3c(O)cc4c(c3O)-c3cc(ccc3O)C3NC(=O)C5NC(=O)C6NC(=O)C(Cc7ccc(c(Cl)c7)Oc7cc5cc(c7O)Oc5ccc(cc5Cl)C(O)C(NC3=O)C(=O)NC4C(=O)NC)NC(=O)C(N)c3ccc(O)c(c3)Oc3cc(O)cc6c3)CC2)cc1 (stereo not drawn)"
reported_result = 5.55

[[record]]
compound = "CCCCc1ccc(CNCC(=O)N2CCN(C(=O)C3NC(=O)C4NC(=O)C(NC(=O)C5NC(=O)C6NC(=O)C(Cc7ccc(c(Cl)c7)Oc7cc5cc(c7O)Oc5ccc(cc5Cl)C4O)NC(=O)C(N)c4ccc(O)c(c4)Oc4cc(O)cc6c4)c4ccc(O)c(c4)-c4c(O)cc(O)cc43)CC2)cc1 (stereo not drawn)"
reported_result = 5.40


---

Quick reference: EC50 of the listed items.
tested on: mutant HIV-1 strain Lys-103-Asn; test: Anti-HIV-1 activity against mutant HIV-1 strain Lys-103-Asn in CEM cultures; type: cell-based
test readout: EC50 (µM)

[[record]]
compound = "CNC(CC(C)C)C(=O)NC1C(=O)NC(CC(N)=O)C(=O)NC2C(=O)NC3C(=O)NC(C(=O)NC(C(=O)O)c4cc(O)c(CN5CCN(Cc6ccc(-c7ccccc7)cc6)CC5)c(O)c4-c4cc3ccc4O)C(O)c3ccc(cc3)Oc3cc2cc(c3O)Oc2ccc(cc2Cl)C1O (centres unmarked)"
test_readout = "EC50"
uom = "µM"
reported_result = 11

[[record]]
compound = "CCCCc1ccc(CNCC(=O)N2CCN(C(=O)C3NC(=O)C4NC(=O)C(NC(=O)C5NC(=O)C6NC(=O)C(Cc7ccc(c(Cl)c7)Oc7cc5cc(c7O)Oc5ccc(cc5Cl)C4O)NC(=O)C(N)c4ccc(O)c(c4)Oc4cc(O)cc6c4)c4ccc(O)c(c4)-c4c(O)cc(O)cc43)CC2)cc1 (centres unmarked)"
test_readout = "EC50"
uom = "µM"
reported_result = 17

[[record]]
compound = "CNC(=O)C1NC(=O)C2NC(=O)C(NC(=O)C3NC(=O)C4NC(=O)C(Cc5ccc(c(Cl)c5)Oc5cc3cc(c5O)Oc3ccc(cc3Cl)C2O)NC(=O)C(N)c2ccc(O)c(c2)Oc2cc(O)cc4c2)c2ccc(O)c(c2)-c2c1cc(O)c(CNC1C3CC4CC(C3)CC1C4)c2O (centres unmarked)"
test_readout = "EC50"
uom = "µM"
reported_result = 12

[[record]]
compound = "CCCCc1ccc(CN2CCN(Cc3c(O)cc4c(c3O)-c3cc(ccc3O)C3NC(=O)C5NC(=O)C6NC(=O)C(Cc7ccc(c(Cl)c7)Oc7cc5cc(c7O)Oc5ccc(cc5Cl)C(O)C(NC3=O)C(=O)NC4C(=O)NC)NC(=O)C(N)c3ccc(O)c(c3)Oc3cc(O)cc6c3)CC2)cc1 (centres unmarked)"
test_readout = "EC50"
uom = "µM"
reported_result = 6

[[record]]
compound = "CN(C)CCCNC(=O)C1NC(=O)C2NC(=O)C(NC(=O)C3NC(=O)C4NC(=O)C(Cc5ccc(c(Cl)c5)Oc5cc3cc(c5O)Oc3ccc(cc3Cl)C2O)NC(=O)C(N)c2ccc(O)c(c2)Oc2cc(O)cc4c2)c2ccc(O)c(c2)-c2c1cc(O)c(CNC1C3CC4CC(C3)CC1C4)c2O (centres unmarked)"
test_readout = "EC50"
uom = "µM"
reported_result = 8.5


Values from patent US20050250677A1
